target: Follistatin (Homo sapiens) (UniProt P19883); test: FST protein binding to printed compounds – biochemical, small-molecule microarray, 635/667 nm fluorescence, primary screen (AID 1132); conditions: 635 nm fluorescence, higher = more signal
Sequence (P19883 whole entry, looked up): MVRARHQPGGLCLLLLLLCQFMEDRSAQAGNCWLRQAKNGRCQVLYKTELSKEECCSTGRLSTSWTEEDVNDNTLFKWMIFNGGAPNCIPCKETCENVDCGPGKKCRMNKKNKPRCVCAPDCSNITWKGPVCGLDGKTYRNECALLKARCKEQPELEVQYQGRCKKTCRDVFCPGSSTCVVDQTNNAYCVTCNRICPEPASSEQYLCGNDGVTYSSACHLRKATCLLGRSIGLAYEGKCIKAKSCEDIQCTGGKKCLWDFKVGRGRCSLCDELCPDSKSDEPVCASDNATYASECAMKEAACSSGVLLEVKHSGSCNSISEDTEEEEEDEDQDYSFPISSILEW
Please note: Fulfilled applies when composite z-score is 0.9 or greater, and Not fulfilled applies otherwise.

Below are worked cases with known answers.
>>> cat("COCCOC(=O)N1C(=O)[C@@]2(c3cc(C#CC4(O)CCCCCC4)ccc31)[C@H](C(=O)NC[C@H](O)c1ccccc1)[C@H]1C(=O)O[C@H](c3ccccc3)[C@H](c3ccccc3)N1[C@@H]2c1ccc(OCCO)cc1")
"Not fulfilled"
>>> cat("Cc1ccc(F)cc1S(=O)(=O)N[C@@H]1CCN(C(=O)c2ccc(OC(C)C)cc2)C1")
"Not fulfilled"
>>> cat("O=[N+]([O-])c1ccc(C[n+]2ccc(-c3ccc(CO)cc3)cc2)o1")
"Fulfilled"

Qu. Is composite z-score at least 0.9? Consider C=CCN1C(=O)[C@@]2(O[C@@H](CCO)[C@H]([Si](C)(C)c3ccc(OC)cc3)[C@H]2C)c2cc(NC(=O)[C@H](C)O)ccc21
Ans. Not fulfilled

Qu. Same question for CC(C)C(CO)N1C(=O)[C@@H]2[C@H]3C(=O)OCC=C[C@H]3OC23C=CCN(CCN2CCOCC2)C(=O)[C@@H]13 (stereo partly drawn) please.
Ans. Not fulfilled

Qu. Input CC(C)CN1C(=O)[C@@]2(Cc3ccccc31)c1ccccc1C(=O)N(Cc1ccccc1)[C@H]2c1ccc(CO)cc1
Ans. Not fulfilled

Qu. And O=C1C2C=CC(C(O)c3cccc4ccccc34)N(Nc3ccccc3)C2C(=O)N1c1ccccc1 (stereo not drawn) ?
Ans. Fulfilled

Qu. Then this molecule: C[N+](C)(C)CCCCNC(=O)[C@H]1C[C@H]2C(=O)NCC(=O)N2[C@H]1c1ccc(O)cc1
Ans. Fulfilled

Qu. Moving on to the next molecule: Cc1ccc(-c2cccc(=O)o2)cc1
Ans. Not fulfilled

Qu. Then what about the molecule C=CCN1C(=O)[C@@]2(O[C@@H](CCn3cc([C@H](O)c4ccccc4)nn3)[C@H]([Si](C)(C)c3ccc(OC)cc3)[C@H]2C)c2cc(NC(=O)c3ccc(OC)cc3)ccc21 ?
Ans. Fulfilled

Qu. Queued: NC(=O)NCC#Cc1ccc2c(c1)[C@]1(C(=O)N2)[C@H](c2ccc(O)cc2)N2[C@H](c3ccccc3)[C@H](c3ccccc3)OC(=O)[C@H]2[C@@H]1C(=O)NC[C@H](O)c1ccccc1
Ans. Not fulfilled

Qu. One more molecule: COCCOC(=O)N1C(=O)[C@@]2(c3cc(C#CC4(O)CCCCCC4)ccc31)[C@H](C(=O)N1CCc3cc(OC)c(OC)cc3C1)[C@H]1C(=O)O[C@H](c3ccccc3)[C@H](c3ccccc3)N1[C@@H]2c1ccccc1OCCO
Ans. Fulfilled

Qu. Param item: [N-]=[N+]=NCc1ccccc1[C@H]1OC(c2ccc(OCCCO)cc2)=N[C@@]1(Cc1ccccc1)C(N)=O
Ans. Not fulfilled

Qu. Then this molecule: CCOC(=O)C[C@H]1[C@H](OC(=O)Cc2ccc3c(c2)OCO3)[C@@H](NC(=O)c2ccccc2)c2cc(OCCCO)ccc2N1C(=O)c1ccccc1
Ans. Not fulfilled

Qu. Another molecule: C[C@]12C(=O)N(CCCO)[C@@H]3C(=O)N(c4ccc(Cl)cc4)CC=CC31O[C@@H]1/C=C\CCCOC(=O)C12 (stereo partly drawn)
Ans. Not fulfilled

Qu. Cool, now COC(=O)[C@@]1(Cc2ccccc2)[C@H]2c3cc(C(=O)N4CCCC4)n(CCO)c3C[C@H]2CN1C(=O)c1ccccc1
Ans. Fulfilled

Qu. What would you report for COc1ccc([Si](C)(C)[C@@H]2[C@@H](CC(=O)N(CCO)Cc3ccccc3)O[C@]3(C(=O)N(Cc4ccc(N5CCOC5=O)cc4)c4ccccc43)[C@H]2C)cc1 ?
Ans. Fulfilled

Qu. Lookup COC(=O)[C@H]1N=C(c2ccc(OCCCO)cc2)O[C@H]1c1ccccc1CN=[N+]=[N-]
Ans. Not fulfilled

Qu. What about C=C(C(=O)CC[C@H](OC(=O)c1cccnc1)c1ccc(OCCO)cc1)C(C)C ?
Ans. Fulfilled

Qu. Would you kindly repeat that for O=C1N(CCS(=O)(=O)c2ccccc2)Cc2ccccc2C[C@@]12COC(c1ccc(OCCCO)cc1)=N2 ?
Ans. Fulfilled

Qu. Another molecule to check: C=CCNC(=O)[C@H]1[C@@H]2C(=O)O[C@@H](c3ccccc3)[C@@H](c3ccccc3)N2[C@@H](c2ccc(OCCO)cc2)[C@]12C(=O)N(C(=O)OCCOC)c1ccc(C#CC3=CCCCC3)cc12
Ans. Fulfilled

Qu. // same read-out, input: Cc1cc(C)c(C(O)C2C=CC3C(=O)N(c4ccccc4)C(=O)C3N2Nc2ccc([N+](=O)[O-])cc2)c(C)c1 (stereo not drawn)
Ans. Fulfilled

Qu. What do you have for CC(C)N1C(=O)c2ccccc2[C@](C)(C(=O)O)[C@@H]1c1ccc(CO)cc1 ?
Ans. Not fulfilled

Qu. Same for COC(=O)[C@@]1(Cc2ccc(OC)cc2)[C@H]2c3cc(C(=O)N(C)C)n(Cc4cc(F)c(F)c(F)c4)c3C[C@H]2CN1C(=O)c1ccccc1
Ans. Not fulfilled

Qu. Okay, and CCCC[C@@H](O)C1=C(COc2ccccc2)Cn2c(=O)n(-c3ccccc3)c(=O)n2[C@H]1CO ?
Ans. Not fulfilled

Qu. Would you kindly repeat that for CN(C)C(=O)[C@@]1(Cc2ccccc2N=[N+]=[N-])N=C(c2ccc(OCCCO)cc2)O[C@H]1c1ccccc1N=[N+]=[N-] ?
Ans. Fulfilled
